tested.system: human H-PGDS (Homo sapiens (Human), UniProt O60760)
Sequence (O60760 whole entry): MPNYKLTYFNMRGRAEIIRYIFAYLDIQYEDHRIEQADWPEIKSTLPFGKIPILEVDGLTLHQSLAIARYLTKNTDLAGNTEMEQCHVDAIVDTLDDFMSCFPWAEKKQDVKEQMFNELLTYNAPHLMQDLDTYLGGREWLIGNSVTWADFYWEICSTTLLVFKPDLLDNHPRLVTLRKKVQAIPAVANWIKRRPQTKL
measurement.protocol: Hematopoietic prostaglandin D synthase (H-PGDS) inhibiting action
Type: biochemical
condition.parameters: compound at 0.1 μM, relative to the control group; human H-PGDS, [14C] prostaglandin H2 10 μM; read-out: Inhibition Rate (%) 0.1 μM
Use Met when the recorded inhibition at 0.1 µM is no lower than 60%; use Not met when it is lower.

Use the examples below as a reference point.
Cc1nc(C)n(CCCc2ccc(N3CCC(NC(=O)N4CCN(C(=O)c5cccn5C)CC4)CC3)cc2)n1 :: Not met
O=C(NCCN1CCOCC1)c1ccc(N2CCC(NC(=O)N3CCN(C(=O)c4cccs4)CC3)CC2)cc1 [Reference Example 4, reference compound] :: Not met
O=C(Nc1nc2ccc(Cl)cc2s1)N1CCN(C(=O)c2cccc(F)c2)CC1 [Reference Example 16, reference compound] :: Not met
Cc1cc2nc(NC(=O)N3CCN(C(=O)c4cccc(F)c4)CC3)sc2cc1C [Reference Example 13, reference compound] :: Not met
Cn1cccc1C(=O)N1CCN(C(=O)NC2CCN(c3ccc(C(=O)N4CCOCC4)cc3)CC2)CC1 :: Met
O=C(Nc1nc2ccc(Br)cc2s1)N1CCN(C(=O)c2cccc(F)c2)CC1 [Reference Example 12, reference compound] :: Not met
Cn1cccc1C(=O)N1CCN(C(=O)NC2CCN(c3ccc(C(=O)N4CCOCC4)cn3)CC2)CC1 :: Not met
O=C(NCCN1CCOCC1)c1ccc(N2CCC(NC(=O)N3CCN(C(=O)c4ccccc4)CC3)CC2)cc1 [Reference Example 11, reference compound] :: Not met
COc1ccc2nc(NC(=O)N3CCN(C(=O)c4cccc(F)c4)CC3)sc2c1 [Reference Example 15, reference compound] :: Not met
Cc1ccc2nc(NC(=O)N3CCN(C(=O)c4cccc(F)c4)CC3)sc2c1 [Reference Example 14, reference compound] :: Not met

Evaluate Cn1cccc1C(=O)N1CCN(C(=O)NC2CCN(c3ccc(C(=O)N4CCCCC4)cc3)CC2)CC1 : inhibition at 0.1 µM at minimum 60%?
Met

Does Cn1cccc1C(=O)N1CCN(C(=O)NC2CCN(c3ccc(C(=O)N4CCCC4)cc3)CC2)CC1 have a reported inhibition at 0.1 µM of at least 60%?
Met

Check the entry Cn1cccc1C(=O)N1CCN(C(=O)NC2CCN(c3ccc(C=CC(=O)N4CCOCC4)cc3)CC2)CC1 : does inhibition at 0.1 µM equal or exceed 60%?
Met

---

tested.system: human H-PGDS (Homo sapiens (Human))
measurement.protocol: Hematopoietic prostaglandin D synthase (H-PGDS) inhibiting action
Format: biochemical
condition.parameters: compound at 0.1 μM, relative to the control group; human H-PGDS, [14C] prostaglandin H2 10 μM; read-out: Inhibition Rate (%) 0.1 μM
readout.type: inhibition at 0.1 µM (%)
Use % as the unit, but write only the number.

Past entries and their recorded results:
Cn1cccc1C(=O)N1CCN(C(=O)NC2CCN(c3ccc(C(=O)NCc4cccnc4)cc3)CC2)CC1 :: 55.2
Cn1cccc1C(=O)N1CCN(C(=O)NC2CCN(c3ccc(CCC(=O)N4CCOCC4)cc3)CC2)CC1 :: 53.6
Cn1cccc1C(=O)N1CCN(C(=O)NC2CCN(c3ccc(C(=O)NCCN4CCOCC4)cc3)CC2)CC1 :: 69.1

What value of inhibition at 0.1 µM has been recorded for this entry: O=C(Nc1ccc(C(F)(F)F)cc1)N1CCN(C(=O)c2cccc(F)n2)CC1 [Reference Example 17, reference compound]
1.8
